List of DC50 values.
Target: BRAF G466V (Homo sapiens, UniProt P15056, G466V)
Construct: Horizon Discovery (HCT-116 BRAF−/− cells); host or cells: HCT-116 BRAF−/− cells, clone 8, lentiviral transduction
Sequence (P15056 whole entry G466V): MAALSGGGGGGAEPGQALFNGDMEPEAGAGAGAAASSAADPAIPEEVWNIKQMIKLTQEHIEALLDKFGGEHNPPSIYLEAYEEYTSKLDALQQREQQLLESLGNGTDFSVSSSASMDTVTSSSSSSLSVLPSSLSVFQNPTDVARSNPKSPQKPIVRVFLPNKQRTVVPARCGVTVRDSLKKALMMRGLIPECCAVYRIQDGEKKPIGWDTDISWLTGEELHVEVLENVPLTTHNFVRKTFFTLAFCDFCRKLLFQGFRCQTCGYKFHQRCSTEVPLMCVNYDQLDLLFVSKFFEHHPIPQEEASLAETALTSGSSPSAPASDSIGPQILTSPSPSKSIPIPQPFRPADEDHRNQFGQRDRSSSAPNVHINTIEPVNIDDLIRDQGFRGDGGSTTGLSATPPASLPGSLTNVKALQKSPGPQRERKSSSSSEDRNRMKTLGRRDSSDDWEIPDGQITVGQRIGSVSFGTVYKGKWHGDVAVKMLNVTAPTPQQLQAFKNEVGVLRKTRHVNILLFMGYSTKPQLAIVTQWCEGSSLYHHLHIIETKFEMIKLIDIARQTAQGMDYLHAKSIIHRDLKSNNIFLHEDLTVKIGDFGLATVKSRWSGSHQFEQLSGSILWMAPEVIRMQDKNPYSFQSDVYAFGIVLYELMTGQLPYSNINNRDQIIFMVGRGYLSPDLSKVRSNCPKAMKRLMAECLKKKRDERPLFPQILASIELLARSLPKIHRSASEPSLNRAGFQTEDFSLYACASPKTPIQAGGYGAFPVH
Experiment: BRAF HiBiT degradation assay, C-terminal HiBiT-tagged BRAF G466V overexpressed in HCT-116 BRAF−/− cells (clone 8), Nano-Glo HiBiT Lytic assay
Assay type: cell-based
Settings: BRAF G466V (Class 3), HCT-116 BRAF−/− cells; DC50 at 50% degradation

Examples from the recorded data:
compound	DC50
O=C1CCC(c2cc(F)c(N3CCC(CN4CCN(c5ccc(-n6cc(-c7cc(Cl)cc(NS(=O)(=O)N8CCCC8)c7F)c(-c7ccncc7)n6)cc5)CC4)CC3)cc2F)C(=O)N1 (racemic) [Compound 386]	10 to 50 nM
O=C1CC[C@H](c2ccc(N3CCC(CN4CCN(c5ccc(-n6cc(-c7cc(Cl)cc(NS(=O)(=O)N8CC[C@@H](F)C8)c7F)c(-c7ccncc7)n6)c(F)c5)CC4)CC3)nc2)C(=O)N1 [Compound 334]	< 10 nM
C[C@@H]1CN(c2ccc(-n3cc(-c4cc(Cl)cc(NS(=O)(=O)N5CCCC5)c4F)c(-c4ccncc4)n3)cc2)CCN1CC1CCN(c2ccc([C@H]3CCC(=O)NC3=O)cc2)CC1 [Compound 316]	< 10 nM

Param item = O=C1CC[C@H](c2ccc(N3CCC(CN4CCN(c5ccc(-n6cc(-c7cc(Cl)cc(NS(=O)(=O)N8CCCC8)c7F)c(-c7ccncc7)n6)nc5)CC4)CC3)nc2)C(=O)N1 [Compound 290] ; retrieve measured DC50.
< 10 nM

Param item = O=C1CC[C@H](c2ccc(N3CCC(CN4CCN(c5ccc(-n6cc(-c7cc(F)cc(NS(=O)(=O)N8CCCC8)c7F)c(-c7ccncc7)n6)cc5)CC4)CC3)cc2)C(=O)N1 [Compound 299] ; retrieve measured DC50.
< 10 nM

----------
List of DC50 values.
Target: BRAF V600E (Homo sapiens, UniProt P15056, V600E)
Construct: endogenous C-terminal HiBiT fusion tag on BRAF V600E allele; endogenous in cells; host or cells: A375 clone 1F10 (CRISPR-Cas9 knock-in of the HiBiT tag; parental A375 from ATCC)
Sequence (P15056 whole entry V600E, the tested form may be a part): as the sequence (P15056 whole entry G466V) above, with V466G, V600E counted along it
Test: BRAF HiBiT degradation assay, C-terminal HiBiT-tagged BRAF V600E A375 cells (clone 1F10), Nano-Glo HiBiT Lytic assay
Format: cell-based
Conditions: A375 (BRAF V600E, Class 1); DC50 at 50% degradation

molecule	DC50
O=C1CC[C@H](c2ccc(N3CCC(CN4CCN(c5ccc(-n6cc(-c7cc(Cl)cc(NS(=O)(=O)N8CCCC8)c7F)c(-c7ccncc7)n6)cc5)CC4)CC3)nc2)C(=O)N1 [Compound 285]	< 10 nM
CCN(C)S(=O)(=O)Nc1cc(Cl)cc(-c2cn(-c3ccc(N4CCN(CC5CCN(c6ccc([C@H]7CCC(=O)NC7=O)cn6)CC5)CC4)cc3)nc2-c2ccncc2)c1F [Compound 309]	< 10 nM

Now, please, on to the next molecule.
Reported DC50 for BRAF V600E (Homo sapiens, UniProt P15056, V600E), given CCCS(=O)(=O)Nc1cc(Cl)cc(-c2cn(-c3ccc(N4CCN(CC5CCN(c6ccc([C@H]7CCC(=O)NC7=O)cc6)CC5)[C@H](C)C4)cc3)nc2-c2ccncc2)c1F [Compound 275] ?
< 10 nM

// data source = patent US20260317324A1
